Would you kindly list EC50 for each of these compounds?
# System: recombinant NL4-3 virus (nef section replaced with Renilla luciferase gene) in MT-2 cells
# test_protocol: whole plant or invertebrate
# Format: cell-based, HIV
# test_parameters: NL43, luciferase activity in MT-2 cells infected 4-5 days with recombinant NL4-3 virus, read-out: Activity
Where a name gives a salt, the structure may show the parent alone.

Record excerpt, results attached:
compound=COc1cccc(-n2ccnc2[C@H](Cc2ccccc2)NC(=O)NS(=O)(=O)c2ccccc2C)c1 measured_result="< 100 nM"
compound=CCOc1cccc(-n2ccnc2[C@H](Cc2ccccc2)NC(=O)NS(=O)(=O)c2ccccc2C)c1 measured_result="100 to 1000 nM"
compound="NC(=O)c1cc(-c2cccnc2[C@H](Cc2cc(F)cc(F)c2)NC(=O)NS(=O)(=O)c2ccccc2Cl)ccc1F [Example 95, TFA]" measured_result="100 to 1000 nM"
compound=Cc1ccccc1S(=O)(=O)NC(=O)N[C@@H](Cc1ccccc1)c1nccn1-c1ccc(OC(C)C)cc1 measured_result="< 100 nM"
compound="CC(C)(C)OC(=O)n1cc(-c2cccnc2[C@@H](Cc2cc(F)cc(F)c2)NC(=O)NS(=O)(=O)c2ccccc2Cl)c2ccccc21 [Example 101, TFA]" measured_result="> 1000 nM"

Look up EC50 for the entries below, preserving their order.
1. O=C(NC(Cc1cc(F)cc(F)c1)c1ncccc1Br)NS(=O)(=O)c1ccccc1Cl (stereo in doubt) [Example 113, TFA]
2. CCOc1ccc(-c2cccnc2C(Cc2ccccc2)NC(=O)NS(=O)(=O)c2ccccc2C)cc1 (stereo not shown)

1. > 1000 nM
2. 100 to 1000 nM

---

Would you kindly list pEC50 for each of these compounds?
# System: recombinant NL4-3 virus (nef section replaced with Renilla luciferase gene) in MT-2 cells
# test_protocol: whole plant or invertebrate
# Assay type: cell-based, HIV
# test_parameters: NL43, luciferase activity in MT-2 cells infected 4-5 days with recombinant NL4-3 virus, read-out: Activity
pEC50: −log10 of the molar value. Counter-ions that a name gives are not always drawn.

Record excerpt, results attached:
compound="Cc1ccccc1S(=O)(=O)NC(=O)N[C@H](Cc1cc(F)cc(F)c1)c1ncccc1Br [Example 107, TFA]" tested_on="recombinant NL4-3 virus (nef section replaced with Renilla luciferase gene) in MT-2 cells" measured_result="< 6.00"
compound="Cc1cc(-c2cccnc2[C@H](Cc2cc(F)cc(F)c2)NC(=O)NS(=O)(=O)c2ccccc2C)c(C)s1 [Example 133, TFA]" tested_on="recombinant NL4-3 virus (nef section replaced with Renilla luciferase gene) in MT-2 cells" measured_result="< 6.00"
compound="CCOc1ccc(-c2cccnc2[C@@H](Cc2ccccc2)NC(=O)NS(=O)(=O)c2ccccc2C)cc1 [Example 105, TFA]" tested_on="recombinant NL4-3 virus (nef section replaced with Renilla luciferase gene) in MT-2 cells" measured_result="< 6.00"
compound=COC(=O)Nc1ccc(-n2ccnc2[C@H](Cc2ccccc2)NC(=O)NS(=O)(=O)c2ccccc2Cl)cc1 tested_on="recombinant NL4-3 virus (nef section replaced with Renilla luciferase gene) in MT-2 cells" measured_result="> 7.00"

Let us examine a further case.
Entry under test: Cc1ccccc1S(=O)(=O)NC(=O)NC(Cc1ccccc1)c1ncccc1Br (centres unmarked) [Example 116, TFA] . Its pEC50 was < 6.00

---

# Tested on: recombinant NL4-3 virus (nef section replaced with Renilla luciferase gene) in MT-2 cells
# test_protocol: whole plant or invertebrate
# Type: cell-based, HIV
# test_parameters: NL43, luciferase activity in MT-2 cells infected 4-5 days with recombinant NL4-3 virus, read-out: Activity
pEC50: −log10 of the molar value. Where a name gives a salt, the structure may show the parent alone.
recorded_metric: pEC50

compound=COC(=O)Nc1ccc(-n2ccnc2[C@H](Cc2ccccc2)NC(=O)NS(=O)(=O)c2ccc(C)s2)cc1 recorded_metric=pEC50 measured_result="6.00 to 7.00"
compound=CCOc1ccc(-n2ccnc2[C@H](Cc2ccccc2)NC(=O)NS(=O)(=O)c2cccc(Cl)c2Cl)cc1 recorded_metric=pEC50 measured_result="> 7.00"

Entry under test: COc1ccc(-c2cccnc2C(Cc2cc(F)cc(F)c2)NC(=O)NS(=O)(=O)c2ccccc2Cl)cc1 (stereo in doubt) [Example 114, TFA] . Its pEC50 was < 6.00
